test system: CP215; experiment: qHTS profiling for inhibitors of Plasmodium falciparum proliferation (AID 504749); further: nearly all actives have a fitted effect of over 60% in size; conditions: P. falciparum in erythrocytes, SYBR Green DNA, 72 h; series mostly up to 28.7 µM
Inconclusive results are not listed. Active and inactive are the calls of the source. The call rests on the fitted dose curve; in most records, active means well fitted inhibition curve with a large enough effect; inconclusive means small, poorly fitted or top-dose-only effect; inactive means flat fitted curve, though single readings scatter.
Mark one answer only. Choices: Y for active, N for inactive

stdin: Outcome? Oc1cc(Cl)c(Cl)cc1Cl
stdout: N

stdin: Call for entry CCC1(CC)C(=O)NC(=O)N(C)C1=O :
stdout: N

stdin: Test call, this compound: O=CC=O
stdout: N

stdin: Hi, do you know how CC(C)(O)C1C2OC(=O)C1C1(O)CC3OC34C(=O)OC2C14C (configuration not stated) came out in this test?
stdout: N

stdin: Recorded call for N#CC1(N2CCCCC2)CCCCC1 ?
stdout: N

stdin: Check the results log: what was the call for C#CC(C)(O)CC (configuration not stated) ?
stdout: N

stdin: Entry c1csc(C2(N3CCCCC3)CCCCC2)c1 : call = ?
stdout: N

stdin: In this assay, the call recorded for CNC1(c2ccccc2Cl)CCCCC1=O (configuration not stated) was what?
stdout: N

stdin: Status in this test for O=c1c2ccccc2[se]n1-c1ccccc1 ?
stdout: N

stdin: Each compound tested received a call. Report the one for NCC(O)c1cccc(O)c1 (configuration not stated) .
stdout: N

stdin: Please let me know the test result on file for O=C/C=C/c1ccccc1 .
stdout: N

stdin: Record request — test call for O=C(CCl)c1ccc(Oc2ccc(C(=O)CCl)cc2)cc1
stdout: N

stdin: For FC(F)OC(F)(F)C(F)Cl (configuration not stated) , which call appears in the assay record?
stdout: N

stdin: Dear all, I need the recorded test outcome for O=S(=O)(O)c1cc(O)ccc1O , thank you.
stdout: N

stdin: Entry ClCC1CO1 (configuration not stated) : call = ?
stdout: N

stdin: // outcome(item) with item = F/C(COc1ccc2c(c1)[nH]c1ccccc12)=C1/CN2CCC1CC2
stdout: N

stdin: How was N#CN classified in this test?
stdout: N

stdin: // outcome(item) with item = CC(C)(C)c1cc(O)ccc1O
stdout: Y

stdin: Name the outcome recorded for C[C@]12CCC(=O)C[C@@H]1CC[C@@H]1[C@@H]2CC[C@]2(C)[C@@H](O)CC[C@@H]12 in the assay.
stdout: N

stdin: Which result was noted for this compound in the test: O=C1CN(O)C(c2ccccc2)=c2cc(Cl)ccc2=N1
stdout: N

stdin: State the result this test recorded for COc1ccc(OC)c(C(O)C(C)N)c1 (configuration not stated) .
stdout: N

stdin: GET /call?item= ClC1C(Cl)C(Cl)C(Cl)C(Cl)C1Cl (configuration not stated) returns the recorded outcome of this test.
stdout: N

stdin: Field: outcome | Entry: [O]=[Cr](=[O])([OH])[O][Cr](=[O])(=[O])[OH]
stdout: N

stdin: Which outcome was assigned to O=Cc1ccco1 in this test?
stdout: N

stdin: Given O[C@H]1[C@H]2[C@H](O)CCCN2C[C@H]1O , state the outcome it received in this test.
stdout: N

stdin: Test call, this compound: CNC(C)C(O)c1ccc(O)cc1 (configuration not stated)
stdout: N

stdin: Hello, I am checking results. What call was entered for O=C1C2CC=CCC2C(=O)N1SC(Cl)(Cl)Cl (configuration not stated) ?
stdout: N

stdin: Hey, what did the test say about COC1=CC=C2[C@H]3Cc4ccc(OC)c5c4[C@@]2(CCN3C)[C@H]1O5 ?
stdout: N

stdin: Short answer needed: outcome of this test for CC12NC(Cc3ccccc31)c1ccccc12 (configuration not stated) ?
stdout: N

stdin: What call does the record list for O=C1CCCCC1CN1CCCCC1 (configuration not stated) ?
stdout: N

stdin: Look up the recorded call for O=C(O)C(Cl)(Cl)Cl in this test.
stdout: N

stdin: Outcome? Oc1cccc[c]1[Hg][Cl]
stdout: Y

stdin: What was the test verdict on CN1C2CCC1CC(OC(c1ccccc1)c1ccc(Cl)cc1)C2 (configuration not stated) ?
stdout: Y

stdin: Called result for Clc1ccc(Cl)cc1
stdout: N

stdin: Outcome? C=CCN1CCC23c4c5ccc(O)c4O[C@H]2C(=O)CC[C@@]3(O)C1C5 (some centres not stated)
stdout: N

stdin: GET /call?item= CN1[C@@H]2CC[C@H]1CC(OC1c3ccccc3CCc3ccccc31)C2 (some centres not stated) returns the recorded outcome of this test.
stdout: N

stdin: Can you look up the reported call for c1ccc2cc(CC3=NCCN3)ccc2c1 for me?
stdout: N

stdin: Hello, I am checking results. What call was entered for CC(C)CCON=O ?
stdout: N

stdin: Can you look up the reported call for C[N+]1(C)C2CCC1CC(OC(=O)c1c[nH]c3ccccc13)C2 (configuration not stated) for me?
stdout: N

stdin: How did this test come out for C=CCN(C1=NCCN1)c1c(Cl)cccc1Cl ?
stdout: N

stdin: So what was the verdict on ClC(Cl)(Cl)Cl in this test?
stdout: N

stdin: Tell me the recorded outcome of this test for C[C@H]1CC[C@@H]2[C@@H](C)[C@H]3[C@H](C[C@H]4[C@@H]5CC=C6CC(O[C@@H]7O[C@H](CO)[C@H](O)[C@H](O[C@@H]8O[C@H](CO)[C@@H](O)[C@H](O)[C@H]8O)[C@H]7O[C@H]7O[C@@H](C)[C@H](O)[C@@H](O)[C@H]7O)CC[C@]6(C)[C@H]5CC[C@]34C)N2C1 (some centres not stated) .
stdout: N

stdin: I would be grateful if you could indicate the recorded call for [Cl-].[Cl-].[Hg+2] .
stdout: N

stdin: Given CCC(C)(S(=O)(=O)CC)S(=O)(=O)CC , state the outcome it received in this test.
stdout: N

stdin: Which result was noted for this compound in the test: CCCCCCCCOC(=O)c1ccccc1C(=O)OCCCCCCCC
stdout: N

stdin: How did this test come out for CCC1(c2ccccc2)C(=O)NC(=O)NC1=O ?
stdout: N

stdin: Name the outcome recorded for CC(N)Cc1ccc(O)cc1 (configuration not stated) in the assay.
stdout: N

stdin: Outcome logged for S=C(S)N1CCNCC1 in this assay:
stdout: N

stdin: What was the test verdict on Cc1sc2ccccc2c1CC1=NCCN1 ?
stdout: N

stdin: // outcome(item) with item = O=[N+]([O-])C(Br)(CO)CO
stdout: N

stdin: For Cn1sc(Cl)cc1=O , which call appears in the assay record?
stdout: N

stdin: Returns: the outcome recorded for CCCCNCC(O)c1ccc(O)cc1 (configuration not stated) in this assay.
stdout: N

---

assay: qHTS for differential inhibitors of proliferation of Plasmodium falciparum line GB4 (AID 1816); details: Plasmodium falciparum GB4 proliferation inhibition; series mostly up to 28.7 µM;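 further: parasite growth measured after 72 h incubation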
Records with an inconclusive call do not appear. The source made the active and inactive calls. Calls follow the shape of the dose curve; as a rule, active = well fitted curve in the direction sought with a large enough effect; inconclusive = small, poorly fitted or top-dose-only effect, or another doubt; inactive = no such curve, though single readings can be large or run the other way.
I would appreciate it if you answered using one of these outcomes: YES = active, NO = inactive

stdin: Which outcome was entered for the molecule N[C@@H](Cn1oc(=O)[nH]c1=O)C(=O)O in this test?
stdout: NO

stdin: Name the outcome recorded for NCCc1c[nH]c2ccc(C(N)=O)cc12 in the assay.
stdout: NO

stdin: How did this test come out for C=CCN1CC[C@]23c4c5ccc(O)c4O[C@@H]2/C(=N/N=C2\CC[C@@]4(O)C6Cc7ccc(O)c8c7[C@@]4(CCN6CC=C)[C@@H]2O8)CC[C@@]3(O)C1C5 ?
stdout: YES

stdin: Assay outcome for CCCN(CCC)CCc1ccc(O)c(O)c1 : what was it?
stdout: YES

stdin: Short answer needed: outcome of this test for CCCN(CCC)[C@H]1CCc2c(F)ccc(O)c2C1 ?
stdout: YES

---

System: PC15
Assay: qHTS profiling for inhibitors of Plasmodium falciparum proliferation (AID 504749); further: nearly all actives have a fitted effect of over 60% in size
Settings: P. falciparum in erythrocytes, SYBR Green DNA, 72 h; series mostly up to 28.7 µM
Protocol: NIH National Institute of Allergy and Infectious Diseases [NIAID] NIH Chemical Genomics Center [NCGC] […] Because mature erythrocytes lack DNA, only Plasmodium-derived DNA is detected. NCGC Assay Protocol Summary: The SYBR Green viability assay was adapted from a method described previously (Plouffe et al., 2008). […] The following morning, fluorescence intensity at 485(14) nm excitation and 535(25) nm emission wavelengths was measured on an EnVision (Perkin Elmer) plate reader. […]
Inconclusive results are not listed. The source made the active and inactive calls. The call rests on the fitted dose curve; in most records, active means well fitted inhibition curve with a large enough effect; inconclusive means small, poorly fitted or top-dose-only effect; inactive means flat fitted curve, though single readings scatter.
Pick from active, inactive when you respond.

stdin: For this molecule, state the assay outcome: O=C1CN=C(c2ccccc2)c2cc(Cl)ccc2N1CC1CC1
stdout: inactive

stdin: Check the results log: what was the call for CCOC(=O)c1ccccc1C(=O)OCC ?
stdout: inactive

stdin: Could you please tell me the result logged for CNC(C)C(O)c1ccc(O)cc1 (configuration not stated) in this assay?
stdout: inactive

stdin: Tell me the recorded outcome of this test for CCN(CC)C(=O)/C(Cl)=C(\C)OP(=O)(OC)OC .
stdout: inactive

stdin: Hi team, can someone confirm the assay call for Clc1ccccc1Cl ?
stdout: inactive

stdin: What outcome does the record of this test show for COc1ccc2c(c1OC)C(=O)OC2C1c2cc3c(cc2CCN1C)OCO3 (configuration not stated) ?
stdout: inactive

stdin: Short answer needed: outcome of this test for FC(F)OC(F)(F)C(F)Cl (configuration not stated) ?
stdout: inactive

stdin: Each molecule tested received a call. Report the one for O=C1CC[C@@]2(O)C3Cc4ccc(O)c5c4C2(CCN3CC2CC2)[C@H]1O5 (some centres not stated) .
stdout: inactive

stdin: Call for entry COc1ccc2c3c1O[C@H]1C(=O)CC[C@H]4[C@@H](C2)N(C)CC[C@]314 :
stdout: inactive

stdin: Hi, do you know how ClC1C(Cl)C(Cl)C(Cl)C(Cl)C1Cl (configuration not stated) came out in this test?
stdout: inactive

stdin: // outcome(item) with item = Oc1cccc[c]1[Hg][Cl]
stdout: active

stdin: What outcome does the record of this test show for O=C(CS(=O)C(c1ccccc1)c1ccccc1)NO (configuration not stated) ?
stdout: inactive

stdin: Record request — test call for C=CCN(C1=NCCN1)c1c(Cl)cccc1Cl
stdout: inactive

stdin: Look up the recorded call for O=C(NC(=O)c1c(F)cccc1F)Nc1ccc(Cl)c(Oc2ncc(C(F)(F)F)cc2Cl)c1 in this test.
stdout: inactive

stdin: Field: outcome | Entry: C[C@H]1CCC[C@H](O)CCCCCc2cc(O)cc(O)c2C(=O)O1
stdout: inactive

stdin: For CC[N+](C)(CC)CCOC(=O)C(O)(c1ccccc1)c1ccccc1 , what call appears in the results of this test?
stdout: inactive

stdin: Hello, I am checking results. What call was entered for C=CCN=C=S ?
stdout: inactive

stdin: Lab log entry: O=C(O)C(Cl)(Cl)Cl — outcome as called in the assay?
stdout: inactive

stdin: // return assay outcome for CCON=O
stdout: inactive

stdin: What call does the record list for O=C1C2CC=CCC2C(=O)N1SC(Cl)(Cl)Cl (configuration not stated) ?
stdout: inactive

stdin: Please share the test call associated with CCC1(C)CC(=O)NC(=O)C1 .
stdout: inactive

stdin: Please indicate how the test categorized C[C@]12CCC(=O)C[C@@H]1CC[C@@H]1[C@@H]2CC[C@]2(C)[C@@H](O)CC[C@@H]12 .
stdout: inactive

stdin: Returns: the outcome recorded for Oc1cc(Cl)c(Cl)cc1Cl in this assay.
stdout: inactive

stdin: State the result this test recorded for O=C(NCNC(=O)NC1C(=O)NC(=O)N1CO)NC1C(=O)NC(=O)N1CO (configuration not stated) .
stdout: inactive

stdin: Please let me know the test result on file for N#CC1(N2CCCCC2)CCCCC1 .
stdout: inactive

stdin: In this assay, the call recorded for C[CH2][Hg][S]c1ccccc1C(=O)O was what?
stdout: active

stdin: Dear colleague, could you share the recorded outcome for CCCCCl when you have a moment?
stdout: inactive
